system: HCT-116; assay: NCI tumour cell line growth inhibition, 48 h
Activity calls are given as the source filed them. No stated cut-off is given here; in the data, active = GI50 up to about 1.1 µM and inactive = higher.
Returns: one label drawn from active, inactive

Solved cases below.
Cc1cc2cc3c(cc2c(-c2ccc(N)cc2)n1)OCO3 | inactive
CC(=O)Oc1ccccc1 | inactive
Cc1cc(/N=N/c2ccc(/N=N/c3c(O)c(S(=O)(=O)O)cc4cc(S(=O)(=O)O)ccc34)cc2C)ccc1/N=N/c1ccc2cc(S(=O)(=O)O)cc(S(=O)(=O)O)c2c1 | inactive
CCCc1c(O)nc(Nc2nc3ccccc3[nH]2)[nH]c1=O | inactive

Query: Could you please tell me the result logged for OCCOc1ccc(-c2cc(-c3ccccn3)nc(-c3ccccn3)c2)cc1 in this assay?
Response: active

Query: Could you please tell me the result logged for Cc1c2cccc(Sc3ccccc3)c2c2c3c(cccc13)[S+](c1ccccc1)C2 (stereo unspecified) in this assay?
Response: inactive

Query: Could you please tell me the result logged for CN(/N=N/c1[nH]cnc1C(N)=O)C1CCCCC1 in this assay?
Response: inactive

Query: Could you please tell me the result logged for N#CCN1C(=O)c2cccc3cc([N+](=O)[O-])cc(c23)C1=O in this assay?
Response: inactive

Query: Could you please tell me the result logged for O=C1C(=O)N(c2ccc(Cl)cc2)C(=O)C(=O)C1c1nc2ccccc2o1 in this assay?
Response: inactive

Query: Could you please tell me the result logged for COC(=O)N/N=C(\C)c1sc(-c2nc(C)c(/C(C)=N/NC(=O)OC)s2)nc1C in this assay?
Response: inactive

Query: Could you please tell me the result logged for COc1cc(-c2cc(=O)c3c(O)c(OC)c(OC)c(OC)c3o2)cc(OC)c1OC in this assay?
Response: inactive

* * *

tested on: CCRF-CEM; assay: NCI tumour cell line growth inhibition, 48 h
Activity calls are given as the source filed them. Cut-off read from the data, not from the text of the source: active = GI50 up to about 1.1 µM and inactive = higher.
Returns: one label drawn from 1 (yes) (active), 0 (no) (inactive)

Query: Could you please tell me the result logged for CCCCS(=O)(=O)CCC(N)P(=O)(O)O (centres undefined) in this assay?
Response: 0 (no)

* * *

system: Hs-578T; test: NCI tumour cell line growth inhibition, 48 h
The source made the active and inactive calls. No stated cut-off is given here; in the data, active = GI50 up to about 1.1 µM and inactive = higher.
Returns: one label drawn from active, inactive

Solved cases below.
CC1(C)N=C(N)N=C(N)N1c1cccc(OCc2cccc([N+](=O)[O-])c2)c1 | inactive
CCOC(=O)c1c(NS(=O)(=O)c2ccc(C)cc2)sc2c1CCCC2 | inactive
CSc1nc(Cl)c2c(n1)Sc1nc3ccccc3n1C2O (stereo not drawn) | inactive
CCOC(=O)N1c2c(c3ccccc3n2C(=O)OCC)C(=O)C(OC)N1C(=O)OCC (stereo not drawn) | inactive
COc1cc(O)c2c(=O)c(OC)c(-c3ccc(OC)c(O)c3)oc2c1 [AYANIN] | inactive
CCC/C(=N\NC(=S)N1CC2CCC(CC2)C1)c1ccccn1 | active
NNc1nncn1N | inactive

Now take the following compound into account.
Query: Could you please tell me the result logged for CCOC(=O)CNC(=O)CNC(=O)CNC(=O)CNNc1c(OCc2ccccc2)c(=O)c1=O in this assay?
Response: inactive

* * *

tested on: HCC 2998; experiment: NCI tumour cell line growth inhibition, 48 h
Active and inactive are the calls of the source. Cut-off read from the data, not from the text of the source: active = GI50 up to about 1.1 µM and inactive = higher.
Field: GI50. Provide a value for each of the molecules that follow.

CN(C)c1cccc(OC(=O)NCCCl)c1 | > 100 µM (inactive)
COC(=O)N/N=C(\C)c1sc(-c2nc(C)c(/C(C)=N/NC(=O)OC)s2)nc1C | > 100 µM (inactive)

Answer for every listed entry: what is its GI50? The entries follow.
1. O=C(/C=C/c1ccccc1F)c1ccc([N+](=O)[O-])cc1
2. C=CCOC(=O)CCCCCCCCCCCCCCCOC(=O)C1=C(CCC[C@@H](C)O[Si](C)(C)C(C)(C)C)NC(=O)N2[C@H](CC3(CC/C=C\[C@H](CC)O[Si](C(C)C)(C(C)C)C(C)C)OCCO3)CC[C@H]12

Response:
15.6 µM (inactive)
> 100 µM (inactive)
